Quick reference for GI50 among some compounds
Test system: TK-10
PROTOCOL SUMMARY: NCI tumour cell line growth inhibition, 48 h
Calls of active or inactive are those of the source. Rule as the data show it: active = GI50 up to about 1.1 µM and inactive = higher.

Q: Reported GI50, compound CCOC(=O)Nc1[nH]cc(-c2ccccc2)c1C#N : ____
Ans: > 100 µM (inactive)

Q: Request the reported GI50 associated with N#CC(NNC(=O)c1ccccc1O)c1cccc(O)c1 (stereo unspecified)
Ans: > 100 µM (inactive)

Q: If you can, please state the reported GI50 value of Cc1cc(-c2ccc[nH]2)on1 .
Ans: > 100 µM (inactive)

Q: Sample O=C1C(Cl)=C(N2CCN(CCOCCO)CC2)C(=O)c2ncccc21 — what was its GI50?
Ans: > 10 µM (inactive)

Q: Would you kindly share the measured GI50 for [N-]=[N+]=NC1C(O)C(CO)OC1n1cnc2c(N)ncnc21 (stereo unspecified) ?
Ans: > 100 µM (inactive)

Q: Returns the measured GI50 for the input compound. Input: CCCNc1c(Cl)cc(Cl)c2[nH]c3ccccc3c(=O)c12
Ans: 51.3 µM (inactive)

====

Test system: UO-31
PROTOCOL SUMMARY: NCI tumour cell line growth inhibition, 48 h
Activity calls are given as the source filed them. Rule as the data show it: active = GI50 up to about 1.1 µM and inactive = higher.
TEST READOUT: GI50

The cases that follow already have their GI50 on record.
O=C1[C@@H]2Cc3c([nH]c4ccccc34)C(C3CCCCC3)N2C(=O)[C@@H]2CCCN12 (some centres not stated)	32.3 µM (inactive)
O=S(=O)(Nc1nccs1)c1ccc(Nc2nc(-c3cccs3)nc3ccc(I)cc23)cc1	17 µM (inactive)
CCOC(=O)/C(C(=O)c1ccc([N+](=O)[O-])cc1)=C(\NS(=O)(=O)c1cc(C)c(Cl)cc1[S-])[n+]1ccc(N(C)C)cc1	35.3 µM (inactive)
Cc1cc(C)cc(C(=N)c2ccccc2Cc2cccc3ccccc23)c1	26.4 µM (inactive)
CCCC(=O)Nc1ncnc2c1ncn2C1OC2COP(=O)(O)OC2C1OC(=O)CCC (configuration not stated)	312 µM (inactive)

Q: Given the entry CC(=O)O[C@H]1C(=O)[C@@]2(C)C(C(OC(=O)c3ccccc3)[C@]3(O)CC(OC(=O)[C@H](OC(=O)CCC(=O)O)C(NC(=O)c4ccccc4)c4ccccc4)C(C)=C1C3(C)C)C1(OC(C)=O)COC1C[C@@H]2OC(=O)CCC(=O)O (some centres not stated) , report its measured GI50.
Ans: 79.1 µM (inactive)

Q: Bench note: what GI50 did CC1=C2CC3=C(C)C(=O)O[C@H]3C[C@@H](C)[C@@H]2CC1 [AMERICANOLIDE D] show?
Ans: > 100 µM (inactive)

====

Known GI50 of a selection of compounds
System: EKVX
PROTOCOL SUMMARY: NCI tumour cell line growth inhibition, 48 h
Activity calls are given as the source filed them. Cut-off read from the data, not from the text of the source: active = GI50 up to about 1.1 µM and inactive = higher.

O=c1[nH]/c(=C/c2ccc(OCc3ccccc3)cn2)c(=O)[nH]/c1=C/c1ccc(Cl)cc1	> 100 µM (inactive)
CC(=O)OC1OC(c2ccoc2)C[C@@]12C1CCC3O[C@]3(C)[C@]1(C)[C@H](OC(C)=O)[C@H](OC(C)=O)[C@H]2C (stereo not given in full)	> 37.5 µM (inactive)
CC1=NN(c2nc(N)nc(CF)n2)C(C)(C)C1	> 100 µM (inactive)
NS(=O)(=O)c1ccc(/N=N/c2cnc(O)c(O)c2)cc1	> 100 µM (inactive)
COc1ccc([C@H]2[C@H]3COC(=O)[C@H]3C(C#N)=C3Sc4ccccc4N32)cc1	37.4 µM (inactive)
O=[N+]([O-])c1ccc(S(=O)(=O)Cc2ccccc2)c([N+](=O)[O-])c1	1.87 µM (inactive)
CN(Cc1cc(Cl)c(Cl)cc1NC(=O)CN)[C@H]1CCCC[C@@H]1N1CCCC1	34.9 µM (inactive)
c1ccc(CSc2nc(N3CCCCC3)c3cn[nH]c3n2)cc1	20.3 µM (inactive)
CN1C(=O)[C@@]2(C=CC3(CC2)OCCO3)c2ccccc21	49.2 µM (inactive)

Proceeding to the next compound to report its GI50.
Q: Can you look up the measured GI50 of CC(=O)Oc1ccc2c(c1)O/C(=C\c1ccc(O)cc1)C2=O for me?
Ans: > 100 µM (inactive)

Numbers sourced from ChEMBL document CHEMBL1201862.
